Below, each of the binders is paired with its reported Top (MFI) value.
study.system: T1, ROR1 naturally expressed on human tumor cell lines (A549, Jeko-1, SW620, PA-1) (human, UniProt Q01973 30-937)
T1 construct: whole, on cells; also called cells expressing ROR1
T1 sequence (Q01973 30-937): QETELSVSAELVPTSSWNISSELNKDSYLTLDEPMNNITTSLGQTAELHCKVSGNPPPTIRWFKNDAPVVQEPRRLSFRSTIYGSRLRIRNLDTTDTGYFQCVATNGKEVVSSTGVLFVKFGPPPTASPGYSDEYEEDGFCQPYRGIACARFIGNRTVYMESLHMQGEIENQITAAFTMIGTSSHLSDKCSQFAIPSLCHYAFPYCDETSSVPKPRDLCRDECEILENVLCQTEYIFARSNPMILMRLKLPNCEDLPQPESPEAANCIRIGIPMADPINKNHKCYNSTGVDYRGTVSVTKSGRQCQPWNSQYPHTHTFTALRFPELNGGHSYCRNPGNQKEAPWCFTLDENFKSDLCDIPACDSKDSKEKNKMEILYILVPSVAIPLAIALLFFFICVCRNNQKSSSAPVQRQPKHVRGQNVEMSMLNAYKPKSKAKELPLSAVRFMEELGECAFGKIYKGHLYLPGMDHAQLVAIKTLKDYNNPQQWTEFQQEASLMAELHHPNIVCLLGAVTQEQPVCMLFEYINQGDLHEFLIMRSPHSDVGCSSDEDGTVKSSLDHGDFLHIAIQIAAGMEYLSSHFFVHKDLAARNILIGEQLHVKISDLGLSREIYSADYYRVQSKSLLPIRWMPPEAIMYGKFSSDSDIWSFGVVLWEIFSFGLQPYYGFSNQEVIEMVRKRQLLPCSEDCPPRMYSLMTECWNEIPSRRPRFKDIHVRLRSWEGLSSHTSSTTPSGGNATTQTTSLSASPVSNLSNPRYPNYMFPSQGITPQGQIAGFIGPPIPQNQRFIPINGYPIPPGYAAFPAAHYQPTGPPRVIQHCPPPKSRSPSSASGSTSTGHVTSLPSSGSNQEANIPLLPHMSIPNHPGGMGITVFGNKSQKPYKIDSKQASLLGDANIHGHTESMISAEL
test.details: FACS on Jeko-1 cells naturally expressing ROR1
Numeric only. Scale: MFI

{"columns": ["binder", "unit.descriptor", "measurement"],
 "data": [
  ["ch29H5D8 (antibody, human IgG1, kappa, V domains shown, also called chimeric antibody of m29H5D8) VH: EVQLQQSGAELARPGASVKLSCKASGYTFTNYGISWVKQRTGQGLEWIGEIYPRSVNTYYSAKFKGKATLTADKSSSTAYMELRSLTSEDSAVYFCARHYYGSSLDYWGQGTTLTVSS VL: DIVLTQSPASLSVATGEKVTIRCITSSDIEDDMNWYQQKPGEPPKLLISEGNSLRPGVPSRFSSSGYGTDFVFTIENTLSEDVADYYCLQSDNIFTFGSGTKLEIKR", "MFI", 70400]
]}

Field Top (MFI) (entry ch135A2B10 (antibody, human IgG1, kappa, V domains shown, also called chimeric antibody of m135A2B10) VH: DVKLVESGGGLVTPEGSLKLSCAASGFAFSTYGMAWVRQTPEKRLEWVASIHKGGFSTYYPDNVKGRFTISRDNDKNTLYLQMSSLKSEDTAMYYCIRHDWDGAMDYWGQGTSVTVSS VL: DIVLTQSPSSMYASLGERVTITCKASQDINSYLNWFQQKPGKSPKTLIYRANRLVDGVPSRFSGSGSGQDYSLTISSLEYEDLGIYYCLQFDEFPYTFGGGTKLEIKR ) reads 71900

For UC-961 (antibody, V domains shown) VH: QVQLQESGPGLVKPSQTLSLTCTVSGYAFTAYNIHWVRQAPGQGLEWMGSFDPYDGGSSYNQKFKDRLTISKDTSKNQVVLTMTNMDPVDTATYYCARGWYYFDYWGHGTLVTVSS VL: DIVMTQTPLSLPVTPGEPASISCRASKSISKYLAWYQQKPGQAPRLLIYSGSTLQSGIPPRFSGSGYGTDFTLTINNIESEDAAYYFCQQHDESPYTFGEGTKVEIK the binder record lists Top (MFI) as 66100

The reported value for ch3G9B1 (antibody, human IgG1, kappa, V domains shown, also called chimeric antibody of m3G9B1) VH: QVQLQQSGTELARPGASVKLSCKASGYTFTSYGITWVKQRTGQGLEWIGEIYPRSGNTYFNEKFKGKATLTADKSSSTAYMELRSLTSEDSAVYFCARDRTGTGVDDYWGQGTTLTVSS VL: DIVLTQSPASLSMAIGEKVTIRCITNTDIDDDMSWYQQKPGEPPNLLISEGNTLRPGVPSRFSSSGYGRDFVFTIENMLSEDVADYYCLQSNNLPYTFGGGTKLEIKR in terms of Top (MFI) is 61100

Just so you know, measured Top (MFI) for ch137G11D10 (antibody, human IgG1, kappa, V domains shown, also called chimeric antibody of m137G11D10) VH: DVQLQESGPGLVKPSQSLSLTCTVTGYSITSDYAWNWIRQFPGNKLEWMGYITYSASTSYNPSLKSRISITRDTSKNQFFLQLNSVTTEDTATYYCARGAGTYYFDYWGQGSTLTVSS VL: DIVLTQSPASLSVATGEKVTIRCITSTDIDEDMNWYQQKPGEPPKLLISEDNSLRPGVPSRFSSSGYGTDFVLTIENTLSEDVADYYCLQTNNLPLTFGAGTKLEIKR came out at 71100
